Measured On: CYP3A4 (Homo sapiens, UniProt P08684)
Sequence (P08684 whole entry): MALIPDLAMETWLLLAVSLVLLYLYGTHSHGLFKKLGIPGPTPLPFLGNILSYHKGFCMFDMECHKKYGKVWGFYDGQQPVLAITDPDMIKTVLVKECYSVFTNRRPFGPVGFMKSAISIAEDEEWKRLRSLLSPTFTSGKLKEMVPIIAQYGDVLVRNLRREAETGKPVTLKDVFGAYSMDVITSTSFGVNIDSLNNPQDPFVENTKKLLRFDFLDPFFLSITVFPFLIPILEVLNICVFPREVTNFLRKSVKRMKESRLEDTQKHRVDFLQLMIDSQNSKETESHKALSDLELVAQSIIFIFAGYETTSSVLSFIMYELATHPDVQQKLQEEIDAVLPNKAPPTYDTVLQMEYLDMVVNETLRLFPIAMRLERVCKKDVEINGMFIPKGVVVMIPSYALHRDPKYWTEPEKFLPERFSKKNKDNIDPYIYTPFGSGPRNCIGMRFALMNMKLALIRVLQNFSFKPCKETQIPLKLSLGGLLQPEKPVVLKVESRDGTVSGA
Assay Method Text: Inhibition of recombinant human CYP3A4 expressed in baculosomes coexpressing rabbit NADPH-P450 reudctase assessed as residual activity at 10 uM preincubated for 5 mins followed by substrate and NADP+ addition measured after 20 mins by fluorescence assay relative to control
Assay type: ADME
Measurement Conditions: read-out: Activity
Parameter: activity at 20 min, 10 µM. Scope: all listed entries.
Recorded Metric: activity at 20 min, 10 µM (%)

1. Cc1ccc(C(C)C)cc1NC(=O)Cn1c(Cc2c(Cl)cccc2Cl)nc2ccccc21
224
2. CN(C)CCCNC(=O)c1ccc(Cn2c(Cc3c(Cl)cccc3Cl)nc3ccccc32)cc1
206
3. O=C(NCCCN1CCCCC1)c1ccc(Cn2c(Cc3c(Cl)cccc3Cl)nc3ccccc32)cc1
176
4. Cc1ccc(C(C)C)cc1NC(=O)Cn1c(-c2cc(Cl)ccc2Cl)nc2ccc(Cl)cc21
15.4
5. COc1ccc(OC)c(Cc2nc3ccccc3n2CC(=O)Nc2cc(C(C)(C)C)cc(C(C)(C)C)c2)c1
43.3
6. CCN1CCCC1CNC(=O)c1ccc(Cn2c(Cc3c(Cl)cccc3Cl)nc3ccccc32)cc1 (stereo unspecified)
130

====

Measured On: UniProt:P50637
Assay Method Text: Inhibition of TSPO in mouse HT22 cells assessed as protection against amyloid beta (1 to 42)-induced mitochondrial membrane potential loss by measuring recovery of mitochondrial membrane potential at 5 uM preincubated for 10 mins followed by amyloid beta (1 to 42) addition measured every 1 hr for 3 hrs by JC1 staining based fluorescence assay relative to control
Type: cell-based
Set-up: scale not given: the % may be the effect or the level left
Measurement Conditions: HT-22
Friendly reminder: Activity below 40% is yes (1), at or above is no (0).

1) CN(C)CCCNC(=O)c1ccc(Cn2c(Cc3c(Cl)cccc3Cl)nc3ccccc32)cc1
no (0)
2) O=C(NCCCN1CCOCC1)c1ccc(Cn2c(Cc3c(Cl)cccc3Cl)nc3ccccc32)cc1
no (0)
3) CC[C@@H](C(=O)Nc1ccccc1OC)n1c(SCc2ccc(C)cc2)nc2ccncc21
no (0)
4) Cc1cccc(C(C)(C)C)c1NC(=O)Cn1c(Cc2ccccc2)nc2ccccc21
yes (1)
5) CCN(CC)CCCNC(=O)c1ccc(Cn2c(SCc3ccc(F)cc3)nc3ncccc32)cc1
yes (1)
6) O=C(Cn1c(SCc2ccc(F)cc2)nc2ncccc21)Nc1ccc2c(c1)OCO2
yes (1)
7) O=C(NCCN1CCCCC1)c1ccc(Cn2c(SCc3ccc(F)cc3)nc3ncccc32)cc1
no (0)
8) O=C(Cn1c(-c2cc(Cl)ccc2Cl)nc2ccc(Cl)cc21)Nc1cc(Cl)cc(Cl)c1
yes (1)

====

Assay Method Text: Terminal half life in Sprague-Dawley rat at 10 mg/kg, iv by LC-MS/MS analysis
Assay type: ADME, organism-based
Measurement Conditions: in vivo, read-out: beta t1/2
Recorded Metric: half-life (h)

1) Cc1ccc(C(C)C)cc1NC(=O)Cn1c(Cc2c(Cl)cccc2Cl)nc2ccccc21
2.62

====

Let's look at some molecules and their measured activity at 20 min, 10 µM.
Measured On: CYP2C19 (Homo sapiens, UniProt P33261)
Sequence (P33261 whole entry): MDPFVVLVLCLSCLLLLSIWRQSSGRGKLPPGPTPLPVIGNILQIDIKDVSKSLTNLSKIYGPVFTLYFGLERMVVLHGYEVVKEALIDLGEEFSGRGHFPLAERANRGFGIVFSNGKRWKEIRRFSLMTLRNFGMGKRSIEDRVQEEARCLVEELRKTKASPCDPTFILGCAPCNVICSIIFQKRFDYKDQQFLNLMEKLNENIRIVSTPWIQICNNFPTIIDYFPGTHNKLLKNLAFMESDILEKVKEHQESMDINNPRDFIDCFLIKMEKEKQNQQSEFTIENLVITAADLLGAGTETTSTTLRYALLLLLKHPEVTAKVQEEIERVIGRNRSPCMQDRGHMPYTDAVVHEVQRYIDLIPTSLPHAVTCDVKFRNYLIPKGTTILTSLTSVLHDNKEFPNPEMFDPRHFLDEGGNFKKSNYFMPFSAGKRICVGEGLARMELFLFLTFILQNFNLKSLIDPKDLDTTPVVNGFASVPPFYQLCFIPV
Assay Method Text: Inhibition of recombinant human CYP2C19 expressed in baculosomes coexpressing rabbit NADPH-P450 reudctase assessed as residual activity at 10 uM preincubated for 5 mins followed by substrate and NADP+ addition measured after 20 mins by fluorescence assay relative to control
Format: ADME
Measurement Conditions: read-out: Activity
Recorded Metric: activity at 20 min, 10 µM (%)

1) CN(C)CCCNC(=O)c1ccc(Cn2c(Cc3c(Cl)cccc3Cl)nc3ccccc32)cc1
72.9
2) O=C(NCCCN1CCCCC1)c1ccc(Cn2c(Cc3c(Cl)cccc3Cl)nc3ccccc32)cc1
67.3
3) Cc1ccc(C(C)C)cc1NC(=O)Cn1c(Cc2c(Cl)cccc2Cl)nc2ccccc21
57.3
4) CCN1CCCC1CNC(=O)c1ccc(Cn2c(Cc3c(Cl)cccc3Cl)nc3ccccc32)cc1 (stereo unspecified)
31.4
5) Cc1ccc(C(C)C)cc1NC(=O)Cn1c(-c2cc(Cl)ccc2Cl)nc2ccc(Cl)cc21
11.9
6) COc1ccc(OC)c(Cc2nc3ccccc3n2CC(=O)Nc2cc(C(C)(C)C)cc(C(C)(C)C)c2)c1
43.9

====

Assay Method Text: Drug excretion in Sprague-Dawley rat at 10 mg/kg, iv by LC-MS/MS analysis
Assay type: ADME, organism-based
Measurement Conditions: in vivo, read-out: Drug excretion
Recorded Metric: dose excreted (%)

1) Cc1ccc(C(C)C)cc1NC(=O)Cn1c(Cc2c(Cl)cccc2Cl)nc2ccccc21
0.03

====

Assay Method Text: Cytotoxicity against mouse HT22 cells assessed as cell viability at 5 uM after 24 hrs by MTT assay relative to control
Format: toxicity, HT-22
Measurement Conditions: read-out: Activity
Label key: MET means viability at 24 h, 5 µM under 90%; NOT MET means viability at 24 h, 5 µM of 90% or more.

1) Cc1ccc(C(C)C)cc1NC(=O)Cn1c(-c2cc(Cl)ccc2Cl)nc2ccccc21
NOT MET
2) O=C(NCCCN1CCOCC1)c1ccc(Cn2c(Cc3c(Cl)cccc3Cl)nc3ccccc32)cc1
NOT MET
3) Cc1ccc(C(C)C)cc1NC(=O)Cn1c(-c2cc(Cl)ccc2Cl)nc2cc(Cl)ccc21
MET
4) Cc1ccc(C(C)C)cc1NC(=O)Cc1nc2ccccc2n1Cc1ccc(C(=O)NCCCN2CCCCC2)cc1
NOT MET
5) Cc1ccc(C(C)C)cc1NC(=O)Cc1nc2ccccc2n1Cc1ccc(C(=O)NCCCN(C)C)cc1
NOT MET
6) CC(C)(C)c1cc(NC(=O)Cn2c(-c3ccccc3)nc3ccccc32)cc(C(C)(C)C)c1
MET
7) Cc1ccc(C(C)C)cc1NC(=O)Cn1c(-c2ccccc2)nc2ccccc21
MET
8) COc1ccc(OC)c(Cc2nc3ccccc3n2CC(=O)Nc2cc(C(C)C)ccc2C)c1
NOT MET
9) CN1CCC(NC(=O)c2ccc(Cn3c(Cc4c(Cl)cccc4Cl)nc4ccccc43)cc2)CC1
NOT MET
10) O=C(Cn1c(-c2cc(Cl)ccc2Cl)nc2ccccc21)Nc1cc(Cl)cc(Cl)c1
NOT MET

====

Measured On: Translocator protein (Mus musculus) (UniProt P50637)
Sequence (P50637 whole entry, looked up): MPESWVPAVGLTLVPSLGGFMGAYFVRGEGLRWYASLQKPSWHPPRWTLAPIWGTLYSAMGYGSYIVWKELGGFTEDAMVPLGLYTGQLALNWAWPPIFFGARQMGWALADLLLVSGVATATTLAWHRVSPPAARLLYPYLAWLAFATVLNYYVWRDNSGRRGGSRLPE
Assay Method Text: Inhibition of TSPO in mouse HT22 cells assessed as protection against amyloid beta (1 to 42)-induced mitochondrial membrane potential loss by measuring recovery of ATP production at 5 uM preincubated for 10 mins followed by amyloid beta (1 to 42) addition measured after 7 hrs by luciferase reporter gene assay relative to control
Assay type: cell-based
Parameters: scale not given: the % may be the effect or the level left
Measurement Conditions: HT-22
Recorded Metric: Activity (%)

1. COc1ccc(OC)c(Cc2nc3ccccc3n2CC(=O)Nc2cc(C(C)(C)C)cc(C(C)(C)C)c2)c1
46
2. CC(C)(C)c1cc(NC(=O)Cn2c(-c3ccccc3)nc3ccccc32)cc(C(C)(C)C)c1
4
3. Cc1ccc(C(C)C)cc1NC(=O)Cn1c(-c2ccccc2)nc2ccccc21
19

====

Measured On: UniProt P30536
Assay Method Text: Binding affinity to recombinant human TSPO by SPR assay
pKd: −log10 of the molar value.
Recorded Metric: pKd

1) Cc1ccc(C(C)C)cc1NC(=O)Cn1c(Cc2c(Cl)cccc2Cl)nc2ccccc21
6.97

====

Assay Method Text: Drug excretion in Sprague-Dawley rat at 10 mg/kg, po by LC-MS/MS analysis
Assay type: ADME, organism-based
Measurement Conditions: in vivo, read-out: Drug excretion
Recorded Metric: dose excreted

1. Cc1ccc(C(C)C)cc1NC(=O)Cn1c(Cc2c(Cl)cccc2Cl)nc2ccccc21
0.01%

====

Measured On: Translocator protein (Homo sapiens)
Sequence (P30536 whole entry): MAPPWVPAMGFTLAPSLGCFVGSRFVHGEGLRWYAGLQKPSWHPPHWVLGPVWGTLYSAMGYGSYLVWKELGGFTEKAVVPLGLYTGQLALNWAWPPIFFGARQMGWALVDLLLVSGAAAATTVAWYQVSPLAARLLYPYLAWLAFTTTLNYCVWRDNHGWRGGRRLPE
pKi: −log10 of the molar value.
This section presents molecules with their documented pKi values.
Recorded Metric: pKi

1) CCCCN(CCCC)C(=O)Cc1c(-c2ccc(Cl)cc2)nc2c(Cl)cc(Cl)cn12
8.57
2) CCCCCCN(CCCCCC)C(=O)Cc1c(-c2ccc(F)cc2)[nH]c2ccccc12
8.49

====

In this section, each of the compounds is paired with its reported activity at 20 min, 10 µM.
Measured On: CYP1A2 (Homo sapiens)
Sequence (P05177 whole entry): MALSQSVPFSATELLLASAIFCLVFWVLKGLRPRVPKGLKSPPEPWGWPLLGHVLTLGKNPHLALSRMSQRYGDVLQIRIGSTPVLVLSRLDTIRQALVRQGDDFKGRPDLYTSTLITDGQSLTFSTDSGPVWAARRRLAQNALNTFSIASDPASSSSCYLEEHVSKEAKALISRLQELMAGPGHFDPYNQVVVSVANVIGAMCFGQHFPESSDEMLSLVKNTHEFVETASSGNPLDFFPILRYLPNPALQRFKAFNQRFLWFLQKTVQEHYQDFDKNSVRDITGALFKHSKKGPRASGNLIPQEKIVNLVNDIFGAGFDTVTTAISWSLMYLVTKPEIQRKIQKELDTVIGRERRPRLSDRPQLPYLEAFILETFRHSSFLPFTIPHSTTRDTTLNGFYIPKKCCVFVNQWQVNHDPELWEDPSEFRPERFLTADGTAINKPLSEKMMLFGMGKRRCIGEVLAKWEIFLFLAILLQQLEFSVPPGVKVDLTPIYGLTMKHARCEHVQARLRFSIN
Assay Method Text: Inhibition of recombinant human CYP1A2 expressed in baculosomes coexpressing rabbit NADPH-P450 reudctase assessed as residual activity at 10 uM preincubated for 5 mins followed by substrate and NADP+ addition measured after 20 mins by fluorescence assay relative to control
Format: ADME
Measurement Conditions: read-out: Activity
Recorded Metric: activity at 20 min, 10 µM (%)

1) CCN1CCCC1CNC(=O)c1ccc(Cn2c(Cc3c(Cl)cccc3Cl)nc3ccccc32)cc1 (stereo unspecified)
63
2) Cc1ccc(C(C)C)cc1NC(=O)Cn1c(Cc2c(Cl)cccc2Cl)nc2ccccc21
108
3) O=C(NCCCN1CCCCC1)c1ccc(Cn2c(Cc3c(Cl)cccc3Cl)nc3ccccc32)cc1
68.4
4) COc1ccc(OC)c(Cc2nc3ccccc3n2CC(=O)Nc2cc(C(C)(C)C)cc(C(C)(C)C)c2)c1
92.5
5) Cc1ccc(C(C)C)cc1NC(=O)Cn1c(-c2cc(Cl)ccc2Cl)nc2ccc(Cl)cc21
56.3
6) CN(C)CCCNC(=O)c1ccc(Cn2c(Cc3c(Cl)cccc3Cl)nc3ccccc32)cc1
66.1

Recorded values, source ChEMBL document CHEMBL3877298.
